Data origin: patent US20220363649A1

# System Tested: human S1R (Homo sapiens, UniProt Q99720)
# Construct: experimentally determined in human jurkat cell membranes using 15.0 nM; endogenous in cells
# Sequence (Q99720 whole entry): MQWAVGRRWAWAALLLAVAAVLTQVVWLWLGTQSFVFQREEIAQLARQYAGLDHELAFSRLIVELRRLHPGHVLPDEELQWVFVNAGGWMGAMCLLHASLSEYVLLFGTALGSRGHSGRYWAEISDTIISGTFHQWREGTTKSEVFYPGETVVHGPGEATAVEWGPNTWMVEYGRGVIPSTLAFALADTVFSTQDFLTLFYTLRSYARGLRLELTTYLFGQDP
# Protocol: Human S1R radiolabeled binding assay, human jurkat cell membranes, [3H]-pentazocine
# Settings: human membranes (Compounds 10-76)
Label t when Ki < 10 nM; otherwise f.

>>> print(df.to_string())
                                    molecule  cat
 0  CC(C)n1nc(CN2CCCC2)nc1-c1ccc(C(C)(C)C)cc1    t
 1    CCn1nc(CN2CCCC2)nc1-c1ccc(C(C)(C)C)cc1    t
 2       Cn1nc(CN2CCCC2)nc1-c1ccc2c(c1)CCCC2    f
 3  CC(C)(C)c1ccc(-c2nc(CN3CCC4(CCCC4)C3)nn2C2CC2)cc1    t
 4       Cn1nc(CN2CCCC2)nc1-c1ccc(Cl)c(Cl)c1    f
 5  CCn1nc(CN2CCC3(CCCC3)C2)nc1-c1ccc(C(C)(C)C)cc1    t
 6  Cn1nc(CN2CCCC2)nc1-c1cccc(C2(C(F)(F)F)CC2)c1    f
 7    Cc1cc(-c2nc(CN3CCCC3)nn2C)ccc1C(F)(F)F    f
 8  Cn1nc(CN2CCC(C)(C)C2)nc1-c1ccc(C(C)(C)C)cc1    t
 9  CC(C)n1nc(CN2CCC3(CC3)C2)nc1-c1ccc(C(C)(C)C)cc1    t
10  CC(C)(C)c1ccc(-c2nc(CN3CCCC3)nn2C2CC2)cc1    f
11      Cn1nc(CN2CCCC2)nc1-c1ccc2cc(Cl)sc2c1    f
12  CCn1nc(CN2CC3CCCC3C2)nc1-c1ccc(C(C)(C)C)cc1 (centres unmarked)    t
